# assay.overview: CMV-Luciferase Counterscreen for Inhibitors of ATXN expression; also: nearly all actives have a fitted effect of over 55% in size
# details: HEK-293 CMV-luciferase reporter, luminescence, 24 h; series mostly up to 57.5 µM
About 670 (32%) of roughly 2,100 compounds were called active. Inconclusive results (about 50%) are left out. Calls follow the shape of the dose curve; as a rule, active = well fitted inhibition curve with a large enough effect; inconclusive = small, poorly fitted or top-dose-only effect; inactive = no such curve, though single readings can be large or run the other way. Some of the results follow.
Outcomes you can answer with include only these: active, inactive

Request: // param item: COCc1ccc(CN2CCC(C(=O)Nc3cccc(-c4cccc(Cl)c4)c3)CC2)o1 ; yields the recorded call
Result: active

Request: Also check CCn1cc(C(=O)NCc2cccc(F)c2)c(=O)c2cc(F)c(N3CCN(C(=O)c4ccco4)CC3)cc21
Result: active

Request: // query: O=C1N/C(=N/N=C/c2ccccc2O)SC1Cc1ccc(F)cc1 (configuration not stated)
Result: active

Request: Repeat with O=C(CSc1n[nH]c(-c2ccccn2)n1)Nc1ccccc1
Result: active

Request: Cool, now COc1ccc(C(=O)c2sc(Nc3ccccc3)nc2N)cc1OC
Result: inactive

Request: Now try Cc1cccc2sc(N(CCCN(C)C)C(=O)c3ccco3)nc12 .
Result: inactive

Request: Param item: COc1ccc(C(=O)NC(=S)NNC(=O)c2c(-c3ccccc3)noc2C)cc1OC
Result: active

Request: Try COc1ccccc1-c1cc2nc(-c3ccccc3)cc(N3CCN(C(=O)c4ccco4)CC3)n2n1 next.
Result: active

Request: Lookup COc1cccc(/C=N/NC(=O)CSc2ccccc2C)c1O
Result: active

Request: // same read-out, input: COc1ccc(O)c(/C=N/NC(=O)CCC(=O)Nc2cccc(C)c2)c1
Result: active

Request: Continue with CCc1ccc(-c2cc(C(F)(F)F)n3nc(C(=O)Nc4cnn(Cc5ccc(C)cc5)c4)cc3n2)s1
Result: inactive

Request: Record: CCCOCc1ccc(O)c2ncccc12
Result: active

Request: Now give it for CCn1cc(C(=O)NCc2ccccc2)c(=O)c2cc(F)c(N3CCN(C(=O)c4ccco4)CC3)cc21 too.
Result: active

Request: Input O=C1C(SCCO)=C(SCCO)C(=O)c2ccccc21
Result: active

Request: Please answer likewise for Cc1ccccc1S(=O)(=O)Cc1ccc(C(=O)N2CCN(c3cccc(C)c3C)CC2)o1
Result: active

Request: Likewise for O=c1c(Cc2ccccc2)c(O)nc2n1CCS2 ?
Result: inactive

Request: Param item: Nc1ccc(OC(=O)Nc2ccc(O)cc2)cc1
Result: active

Request: Try O=C(COc1ccccc1Cl)Nc1ccc(N2CCN(C(=O)c3ccccc3)CC2)cc1 next.
Result: active

Request: Continue with COc1ccc(Cc2[nH]n3c(=O)cc(C(C)C)nc3c2-c2ccccc2)cc1
Result: active

Request: Please answer likewise for Cc1ccc(SC2=C(Sc3ccc(C)cc3)C(=O)c3ccccc3C2=O)cc1
Result: inactive

Request: Next up: O=C(CSc1n[nH]c(-c2ccccn2)n1)Nc1ccc(F)cc1
Result: active

Request: Further, for O=C(CSc1n[nH]c(-c2ccccn2)n1)Nc1ccc(Cl)cc1 ?
Result: active

---

# assay.overview: CMV-Luciferase Counterscreen for Inhibitors of ATXN expression; also: nearly all actives have a fitted effect of over 55% in size; as to activity change, negative = inhibition: % is scaled to controls: 0 for no effect and ±100 for the full control effect
# details: HEK-293 CMV-luciferase reporter, luminescence, 24 h; series mostly up to 57.5 µM
Among all 2,100 compounds or so, about 670 (32%) were called active. Roughly 50% stayed inconclusive and do not appear here. The list shows a part of the results.
measure.name: activity change, negative = inhibition

Request: Look up activity change, negative = inhibition: CCOC(=O)Cn1cc(C(=O)c2ccco2)c2ccccc21
Result: -4.82% [at 11.4 µM] (inactive)

Request: Also need CC1CC(C)CN(CCCNC(=O)c2cc3c(s2)-c2ccccc2OC3)C1 (stereo unspecified) , thanks.
Result: -23% [at 11.4 µM] (inactive)

Request: Next entry: O=C(NCC1CC1)c1ccc2c(c1)S(=O)(=O)c1cc(Cl)ccc1C2=O
Result: -10.6% [at 11.4 µM] (inactive)

Request: Field entry: CC(C)C[C@H](NC(=O)c1[nH]cnc1C(=O)Nc1ccc(CNC(=O)OC(C)(C)C)cc1)C(=O)OCc1ccccc1
Result: -24.4% [at 11.4 µM] (inactive)

Request: Also, COC(=O)c1ccc(N2CCOCC2)c(NC(=O)Nc2cccc(OC)c2)c1 please.
Result: 2.86% [at 11.4 µM] (inactive)

Request: Another compound to check: NC(c1csc(Nc2nccc(C(F)(F)F)n2)n1)C1CCCCC1 (stereo unspecified)
Result: 13.2% [at 11.4 µM] (inactive)

Request: Also Cn1c(-[n+]2c(-c3ccccc3)cc(-c3ccccc3)cc2-c2ccccc2)nc2c([N+](=O)[O-])cccc21 , if possible.
Result: 0.1% [at 11.4 µM] (inactive)

Request: Please answer likewise for O=c1c2ccccc2sc2nc(CCl)nn12
Result: -24% [at 11.4 µM] (inactive)

Request: Would you kindly repeat that for CC(C)(C)OC(=O)N1CCC(c2c(C(=O)NCC3CCN(C4CCCC4)C3)cnn2-c2cccc(Cl)c2)CC1 (stereo unspecified) ?
Result: -22.1% [at 11.4 µM] (inactive)

Request: Continue with Cc1cc(C)nc(NNS(=O)(=O)c2ccc(F)c(Cl)c2)n1
Result: -15.9% [at 11.4 µM] (inactive)

Request: Moving on to the next compound: COc1cc2c3nnc(-c4ccc(F)cc4)c-3cn(Cc3ccccc3F)c2cc1OC
Result: 65% [at 11.4 µM] (inactive)

Request: Same for CCOC(=O)c1c(NC(=O)COC(=O)CNC(=O)c2ccco2)sc(C)c1C
Result: 24.5% [at 11.4 µM] (inactive)

Request: Repeat for the following compound: O=C(CC1NCCc2ccccc21)Nc1ccc(Cl)cc1 (stereo unspecified)
Result: 5.88% [at 11.4 µM] (inactive)

Request: One more compound: CCOC(=O)[C@H]1[C@H]2COc3ccc(OC)cc3[C@@H]2N2C(=O)c3cc(OC)c(OC)cc3NC(=O)[C@@]12C
Result: 6.45% [at 11.4 µM] (inactive)

Request: Field entry: CSc1sc(-c2nnc(SCC(=O)Nc3ccc(Cl)cc3)n2C)c2c1C=CCC2
Result: -19.8% [at 11.4 µM] (inactive)

Request: Subsequent entry: COc1ccc(C(=O)Cn2c(C(=O)/C=C/c3ccccc3)nc3ccccc32)cc1
Result: 92.9% [at 11.4 µM] (inactive)

Request: And O=C(/C=C/c1ccccc1[N+](=O)[O-])c1ccccc1Br ?
Result: 44.2% [at 11.4 µM] (inactive)

Request: What do you get for CCCCC1C(=O)CC[C@H]2[C@@H]1CC(=O)[C@@H]2C/C=C\CCCC(=O)O (stereo partly specified) ?
Result: 4.23% [at 11.4 µM] (inactive)

Request: And then CNc1nc2c(N)ncnc2n1[C@H]1O[C@@H](CO)[C@H](O)[C@@H]1O , what is it?
Result: 119% [at 11.4 µM] (inactive)

Request: Cool, now CCn1c2ccccc2c2cc(NC(=O)COC(=O)c3ccccc3F)ccc21
Result: 9.52% [at 11.4 µM] (inactive)

Request: Now consider Cn1c(=O)c2c(nc(SCCN3CCOCC3)n2Cc2cccc3ccccc23)n(C)c1=O and answer again.
Result: -18.8% [at 11.4 µM] (inactive)

Request: Please give the result for CCNc1ccc(Br)cc(C(=O)/C=C/c2ccccc2Cl)c1=O too.
Result: -8.42% [at 11.4 µM] (inactive)

Request: Let us now turn to NC(Cc1ccc(C(F)(F)F)cc1)c1csc(Nc2nccc(C(F)(F)F)n2)n1 (stereo unspecified)
Result: -10.1% [at 11.4 µM] (inactive)

Request: Ok, now CC(C)=C1SC(N2CCN(c3ccc(C)c(Cl)c3)CC2)=NC1=O
Result: 103% [at 11.4 µM] (inactive)

Request: Same for COc1cc([N+](=O)[O-])cc(/C=N/NC(=O)C(C)Nc2cccc3ccccc23)c1O (stereo unspecified)
Result: 8.76% [at 11.4 µM] (inactive)

Request: What do we get for COc1cc(/C=C/C(O)=C/C(=O)/C=C/c2ccc(O)cc2)ccc1O ?
Result: -3.01% [at 11.4 µM] (inactive)

Request: Query COc1ccc(N=Cc2cc3c(cc2O)OC(N)=C(C#N)C3c2ccccc2)cc1 (stereo unspecified) next
Result: -22.6% [at 11.4 µM] (inactive)

Request: Also, CCn1c2ccccc2c2cc(NC(=O)COC(=O)Cc3cn4ccsc4n3)ccc21 please.
Result: 33.4% [at 11.4 µM] (inactive)

Request: Another: CCN(CC)CCNc1ccnc2cc(Cl)ccc12
Result: -15.4% [at 11.4 µM] (inactive)

Request: Try this compound too: Oc1[nH]c2ccc(Br)cc2c1N=NC(=S)N1CCOCC1
Result: 43.7% [at 11.4 µM] (inactive)

Request: # iterate: CC(C)[C@H](CO)Nc1nc(NCc2ccc(S(N)(=O)=O)cc2)c2ncn(C(C)C)c2n1
Result: 41.8% [at 11.4 µM] (inactive)
